- Tested system: rat albumin (Rattus norvegicus)
- Sequence (P02770 25-608): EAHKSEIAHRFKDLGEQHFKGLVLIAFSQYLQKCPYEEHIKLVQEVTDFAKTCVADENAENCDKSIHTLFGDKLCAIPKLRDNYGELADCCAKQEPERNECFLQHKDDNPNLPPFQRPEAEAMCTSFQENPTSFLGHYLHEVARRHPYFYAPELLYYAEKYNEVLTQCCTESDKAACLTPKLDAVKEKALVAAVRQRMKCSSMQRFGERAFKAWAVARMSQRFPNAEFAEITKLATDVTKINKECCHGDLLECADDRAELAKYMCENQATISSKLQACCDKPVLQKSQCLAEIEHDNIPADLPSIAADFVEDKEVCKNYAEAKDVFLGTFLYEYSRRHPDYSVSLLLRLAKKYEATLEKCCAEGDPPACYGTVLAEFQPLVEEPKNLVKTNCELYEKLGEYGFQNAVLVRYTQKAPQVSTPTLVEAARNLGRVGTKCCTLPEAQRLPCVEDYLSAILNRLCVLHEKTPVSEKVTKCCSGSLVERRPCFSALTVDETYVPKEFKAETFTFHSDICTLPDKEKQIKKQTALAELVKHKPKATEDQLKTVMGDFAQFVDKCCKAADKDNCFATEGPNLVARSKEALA
- Measurement protocol: Direct Binding ELISA, AB.Fab variants on immobilized rat albumin
- Set-up: purchased Sigma
- Measurement context: average and SD of at least 3 determinations
Bridges are numbered along the chain shown (N, C = ends). Where no end group is shown, it is not given here.
Quantity: pEC50
Lab note — pEC50 values are minus log10 of concentrations in M.

pEC50 lookup needed for 4D5-H10: AB.Fab variant made by deletion in 4D5-H4 (Table 12) (DICLPRWGCLW; disulfide 3-9 (inferred); also: part of Fab heavy chain) , thanks.
8.10
